testMethodNotes: amyloid nucleation score (Sup35N fusion, yeast selection) (log enrichment); library NNK3; higher = more nucleation; inactive = no reads after selection;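 further: zero at mode of non-aggregating sequences after 7 days selection at 30°C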
assayEndpoint: amyloid nucleation score

Some entries whose results are on file:
>>> print(df.to_string())
              substance  testresult
0             PRDGERFLG    inactive
1         LTSPFDPISLPKS    inactive
2            VFVDLPRARG       0.499
3  VDEIWMGGLFCILYVSEVHK    inactive
4            DTDFIFVNIA    inactive
5       TLMYFILYYIGLYPE    inactive

Exercise: What value of amyloid nucleation score has been reported for the following substance? GLGMGAPQSILWVGDLLMTN
Solution: inactive

Exercise: Now give it for FLFWILDALLLQVFQLSPHK too.
Solution: inactive

Exercise: Now give it for PGRTSYMKVPYCKWSEWPAK too.
Solution: inactive

Exercise: Now give it for CYHAFRCSGLARACVENINW too.
Solution: inactive

Exercise: Now give it for PAMVCNPTQATRGKSRMVPL too.
Solution: inactive

----------
testMethodNotes: amyloid nucleation score (Sup35N fusion, yeast selection) (log enrichment); library NNK2; higher = more nucleation; inactive = no reads after selection
assayEndpoint: amyloid nucleation score
# output: bare number, no unit

Exercise: What value of amyloid nucleation score has been reported for the following substance? MVVNVGK
Solution: -0.088

Exercise: Now give it for AIRRYIVKAPLLCES too.
Solution: 1.75

Exercise: Now give it for SCDIRRSLVSRAQICVCIVM too.
Solution: 7.53

Exercise: Now give it for SNVTTYSNVSYIRHHSHYLG too.
Solution: 1.32

Exercise: Now give it for NPYAHTGHCVIRGFFVA too.
Solution: 0.275

Exercise: Now give it for MSVVVLWHGLCLQLYMCDA too.
Solution: -0.23

Exercise: Now give it for VLSDRKVY too.
Solution: 0.117

Exercise: Now give it for SNEKVAQSLFAKEREPLRGN too.
Solution: 2.35

Exercise: Now give it for NRSMSISGMTGYEQLKRHGT too.
Solution: 0.023

Exercise: Now give it for DDVSIL too.
Solution: 0.14

Exercise: Now give it for ANFQIFDLLME too.
Solution: -0.061

Exercise: Now give it for NIYGDNVGCYSTECYNTKLI too.
Solution: -0.305

Exercise: Now give it for LYVYMCIPLDYLSSRVDSKR too.
Solution: 5.67

Exercise: Now give it for LIKLMGKSLTRDRY too.
Solution: -0.771

Exercise: Now give it for AADKAICPVGGNTGHRSLGS too.
Solution: 0.691

Exercise: Now give it for CMLEIVLLEDFQG too.
Solution: -0.632

Exercise: Now give it for IAYNMRNGH too.
Solution: 0.949

Exercise: Now give it for VLFCMSYKSARLEL too.
Solution: 6.08

Exercise: Now give it for YRGQLARCDILHSWQTVCSM too.
Solution: -0.337

Exercise: Now give it for SNSDIWHNARHPIDLATYC too.
Solution: 0.293

Exercise: Now give it for DFLSVYSYIKWWAA too.
Solution: -0.886

Exercise: Now give it for CIMRGREQDFWQSDY too.
Solution: 0.116

Exercise: Now give it for YGGDVSP too.
Solution: 0.1

Exercise: Now give it for RSVALARLMFVPLTLDSV too.
Solution: 0.264

Exercise: Now give it for SLSNVLINCVLVFCW too.
Solution: 6.53

Exercise: Now give it for SRWLGAKCSSRC too.
Solution: -0.361

Exercise: Now give it for TESGGSLYNPQLIPDIQGSH too.
Solution: -0.552

Exercise: Now give it for LLPWHRIAWDAYCMWGMSSS too.
Solution: 0.266

Exercise: Now give it for VLFSRFDSVWHVAIAVSARV too.
Solution: 0.671

Exercise: Now give it for QAFPDLTVVRACYMHLL too.
Solution: 0.54

Exercise: Now give it for WRGSLTSPAPGET too.
Solution: 1.87

Exercise: Now give it for FPRDILVS too.
Solution: -0.13

These entries and their values trace back to the supplement of paper PMC12042874.
